Reported Ki values are given for each entry in this list.
target-of-assay: GCN2 kinase (Homo sapiens, UniProt Q9P2K8)
Sequence (Q9P2K8 whole entry): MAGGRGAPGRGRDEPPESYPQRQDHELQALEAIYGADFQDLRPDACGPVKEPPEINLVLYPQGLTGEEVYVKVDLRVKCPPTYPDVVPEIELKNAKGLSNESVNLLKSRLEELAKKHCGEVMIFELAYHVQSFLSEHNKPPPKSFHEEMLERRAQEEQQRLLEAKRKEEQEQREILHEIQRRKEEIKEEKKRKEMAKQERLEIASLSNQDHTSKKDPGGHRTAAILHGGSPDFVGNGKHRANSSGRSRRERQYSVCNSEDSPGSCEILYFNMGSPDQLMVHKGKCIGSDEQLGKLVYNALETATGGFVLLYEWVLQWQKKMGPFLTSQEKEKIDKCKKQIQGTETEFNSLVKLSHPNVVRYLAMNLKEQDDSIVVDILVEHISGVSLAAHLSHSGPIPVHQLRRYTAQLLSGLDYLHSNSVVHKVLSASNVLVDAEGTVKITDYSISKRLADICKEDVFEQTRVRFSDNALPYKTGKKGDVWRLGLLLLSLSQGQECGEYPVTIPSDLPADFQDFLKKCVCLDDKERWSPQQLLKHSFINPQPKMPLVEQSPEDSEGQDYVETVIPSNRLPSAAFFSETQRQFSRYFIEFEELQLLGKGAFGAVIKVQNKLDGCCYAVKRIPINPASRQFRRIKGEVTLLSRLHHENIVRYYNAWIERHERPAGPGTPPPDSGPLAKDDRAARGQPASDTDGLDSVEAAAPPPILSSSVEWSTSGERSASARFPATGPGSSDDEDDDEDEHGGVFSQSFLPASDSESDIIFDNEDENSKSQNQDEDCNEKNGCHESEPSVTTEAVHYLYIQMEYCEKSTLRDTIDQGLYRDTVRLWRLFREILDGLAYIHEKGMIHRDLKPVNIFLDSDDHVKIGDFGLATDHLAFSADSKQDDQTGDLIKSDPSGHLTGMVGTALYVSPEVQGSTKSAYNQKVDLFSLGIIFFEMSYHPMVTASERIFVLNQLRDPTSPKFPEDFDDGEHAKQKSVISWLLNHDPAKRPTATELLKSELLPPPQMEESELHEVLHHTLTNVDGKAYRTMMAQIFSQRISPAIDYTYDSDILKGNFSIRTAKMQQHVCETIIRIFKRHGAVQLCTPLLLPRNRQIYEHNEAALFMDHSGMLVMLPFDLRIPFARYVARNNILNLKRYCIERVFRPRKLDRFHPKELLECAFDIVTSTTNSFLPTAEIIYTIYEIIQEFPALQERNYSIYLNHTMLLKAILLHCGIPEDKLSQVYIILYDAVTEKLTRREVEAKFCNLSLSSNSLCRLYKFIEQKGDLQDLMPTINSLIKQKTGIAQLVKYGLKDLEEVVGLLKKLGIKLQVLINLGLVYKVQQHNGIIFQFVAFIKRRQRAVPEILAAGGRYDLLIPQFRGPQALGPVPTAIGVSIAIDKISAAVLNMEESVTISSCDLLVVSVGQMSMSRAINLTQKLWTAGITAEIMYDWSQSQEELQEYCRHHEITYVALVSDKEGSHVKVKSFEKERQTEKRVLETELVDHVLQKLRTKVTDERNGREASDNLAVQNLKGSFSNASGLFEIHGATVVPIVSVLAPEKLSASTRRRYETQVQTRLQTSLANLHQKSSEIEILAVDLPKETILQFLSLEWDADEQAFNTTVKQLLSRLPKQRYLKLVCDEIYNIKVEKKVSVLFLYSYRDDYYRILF
procedure-details: GCN2 enzyme inhibition assay (Transcreener ADP2 fluorescence polarization)
Type: biochemical
condition-info: Enzyme activity for compounds of Formula IV; Ki(app), 280 μM ATP, 25° C.

Examples with their reported Ki follow.
Answer with the recorded Ki of FC(F)(F)c1cn2c(-c3nccc(N4CCCC(c5cn[nH]c5)C4)n3)cnc2cn1 (single isomer, unassigned) [IV-545] only.
< 0.01 µM

# return recorded Ki for input NS(=O)(=O)N[C@@H]1CCCN(c2ccnc(-c3cnc4cnc(C(F)F)cn34)n2)C1 [IV-181]
0.1 to 1 µM

Identify Ki associated with the compound FC(F)(F)c1cn2c(-c3nccc(N4CCC(N5CCOCC5)C4)n3)cnc2cn1 (stereo not shown) [IV-553]
0.1 to 1 µM

Others:
Check the records and state Ki for NC(=O)c1cn2c(-c3nccc(N4CCN5CCCCC5C4)n3)cnc2cn1 (stereo not shown) [IV-265]
0.1 to 1 µM

Determine from records and report Ki for CC1CCCN(c2ccnc(-c3cnc4cnc(C(F)(F)F)cn34)n2)C1C (stereo not shown) [IV-519]
0.01 to 0.1 µM

Consider the compound Cc1nc(C2CCCN(c3ccnc(-c4cnc5cnc(Br)cn45)n3)C2)c[nH]1 (single isomer, unassigned) [IV-374] and give its recorded Ki.
0.01 to 0.1 µM

Fill in reported Ki for this entry: FC(F)(F)c1cn2c(-c3nccc(N4CCC=C(c5cnsc5)C4)n3)cnc2cn1 [IV-535]
0.01 to 0.1 µM

State, in one line, measured Ki of CC(=O)N1CCN(c2ccc(C(F)(F)F)c(-c3cnc4cnc(C(N)=O)cn34)n2)CC1 [IV-700]
0.1 to 1 µM
